Assay system: UniProt Q16181
Sequence (Q16181 2-437): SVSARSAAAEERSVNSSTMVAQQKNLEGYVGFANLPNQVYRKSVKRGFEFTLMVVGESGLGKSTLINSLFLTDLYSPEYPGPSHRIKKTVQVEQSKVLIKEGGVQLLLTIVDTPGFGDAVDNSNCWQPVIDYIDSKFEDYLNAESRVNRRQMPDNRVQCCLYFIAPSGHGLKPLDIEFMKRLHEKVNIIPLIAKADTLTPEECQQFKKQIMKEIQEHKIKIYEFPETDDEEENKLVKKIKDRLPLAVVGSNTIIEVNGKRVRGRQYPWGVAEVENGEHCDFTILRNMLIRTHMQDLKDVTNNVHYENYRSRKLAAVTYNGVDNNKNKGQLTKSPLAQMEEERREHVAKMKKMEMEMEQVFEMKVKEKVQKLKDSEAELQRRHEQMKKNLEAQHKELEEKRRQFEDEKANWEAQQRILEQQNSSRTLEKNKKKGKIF
Experimental readout: Kd (nM)
Give bare numbers, in nM.

Please report the measured Kd for OC1(c2ccc(Cl)c(C(F)(F)F)c2)CCN(CCCC(c2ccc(F)cc2)c2ccc(F)cc2)CC1 [PFD, penfluridol]
980

---

Assay system: septin6 (Homo sapiens, UniProt Q14141)
Sequence (Q14141 2-434): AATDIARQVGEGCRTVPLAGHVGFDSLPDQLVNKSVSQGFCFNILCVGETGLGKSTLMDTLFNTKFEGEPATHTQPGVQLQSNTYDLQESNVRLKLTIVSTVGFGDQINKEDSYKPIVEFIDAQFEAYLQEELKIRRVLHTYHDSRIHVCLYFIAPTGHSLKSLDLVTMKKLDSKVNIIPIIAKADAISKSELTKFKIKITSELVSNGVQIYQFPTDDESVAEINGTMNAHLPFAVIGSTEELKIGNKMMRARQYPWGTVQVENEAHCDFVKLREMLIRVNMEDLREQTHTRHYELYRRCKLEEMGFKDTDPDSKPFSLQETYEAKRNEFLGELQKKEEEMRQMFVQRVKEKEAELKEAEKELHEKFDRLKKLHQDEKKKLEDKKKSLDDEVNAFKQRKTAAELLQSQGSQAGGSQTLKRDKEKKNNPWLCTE
Experimental readout: Kd (µM)
Numbers only, in µM.

Please report the measured Kd for OC1(c2ccc(Cl)c(C(F)(F)F)c2)CCN(CCCC(c2ccc(F)cc2)c2ccc(F)cc2)CC1 [PFD, penfluridol]
43.1
